Experiment: Bioavailability of Type F crystalline form
Settings: in vivo
readout-type: bioavailability (%)
Numbers only, in %.

*Q* If you can, please state the reported bioavailability value of C=CC(=O)N1CCC(c2ccc(C(N)=O)c(-c3ccc(Oc4ccccc4)cc3)n2)CC1 .
*A* 20
